- System: Hepatitis B virus
- EXPERIMENT DESCRIPTION: Antiviral activity against HBV ayw1 infected in human HepG2(2.2.15) cells assessed as reduction in viral replication by measuring intracellular viral DNA copy number after 6 days byr by real-time qPCR assay
- Type: functional, cell-based
- CONDITION NOTES: ayw1, HepG2 2.2.15, 144 h
For each entry below, report its EC50 value.
Give bare numbers, in nM.

INSERT INTO assay_data (compound, experimental_system, property, measured_number) VALUES
  ('Nc1ccn([C@@H]2CS[C@H](CO)O2)c(=O)n1 [LAMIVUDINE]', 'Hepatitis B virus', 'EC50', 8.87);

# per-item lookup of EC50; items listed below
1. CCCCCOC(=O)C[C@H](NP(=O)(CO[C@H](CF)Cn1cnc2c(N)ncnc21)Oc1ccccc1)C(=O)OCCCCC (stereo partly drawn)
2. C=C1[C@H](CO)[C@@H](O)C[C@@H]1n1cnc2c(=O)[nH]c(N)nc21.O [ENTECAVIR]

1: 20; 2: 0.35

----------
- EXPERIMENT DESCRIPTION: Selectivity index, ratio of CC50 for HEL cells to EC50 for thymidine kinase deficient Varicella-Zoster virus 07-1
- Format: toxicity
- CONDITION NOTES: human, read-out: Ratio CC50/EC50
PROPERTY: selectivity ratio
Answers are plain numbers.

Which measured selectivity ratio value corresponds to CCCCCOC(=O)C[C@H](NP(=O)(CO[C@H](CF)Cn1cnc2c(N)ncnc21)Oc1ccccc1)C(=O)OCCCCC (stereo partly specified) ?
34

----------
For each entry below, report its CC50 value.
- EXPERIMENT DESCRIPTION: Cytotoxicity against human TZM-bl cells assessed as cell viability by tetrazolium dye assay
- Format: cell-based

Consider the reported CC50 for these compounds:
INSERT INTO assay_data (compound, result) VALUES
  ('CCCCCOC(=O)C[C@H](NP(=O)(CO[C@H](CF)Cn1cnc2c(=O)[nH]c(N)nc21)Oc1ccccc1)C(=O)OCCCCC (some centres undefined)', '> 100 µM'),
  ('CCCCCOC(=O)C[C@H](NP(=O)(CO[C@@H](CF)Cn1cc(C)c(=O)[nH]c1=O)Oc1ccccc1)C(=O)OCCCCC (some centres undefined)', '> 100 µM');

# per-item lookup of CC50; items listed below
1. CCCCCOC(=O)C[C@H](NP(=O)(CO[C@@H](CF)Cn1cnc2c(=O)[nH]c(N)nc21)Oc1ccccc1)C(=O)OCCCCC (some centres undefined)
2. CCCCCOC(=O)C[C@H](NP(=O)(CO[C@H](CF)Cn1cnc2c(N)ncnc21)Oc1ccccc1)C(=O)OCCCCC (some centres undefined)

1: > 100 µM; 2: 33.2 µM

----------
- EXPERIMENT DESCRIPTION: Selectivity index, ratio of CC50 for HEL cells to EC50 for thymidine kinase expressing Varicella-Zoster virus Oka
- Assay type: toxicity
- CONDITION NOTES: human, read-out: Ratio CC50/EC50
PROPERTY: selectivity ratio

Which measured selectivity ratio value corresponds to CCCCCOC(=O)C[C@H](NP(=O)(CO[C@H](CF)Cn1cnc2c(N)ncnc21)Oc1ccccc1)C(=O)OCCCCC (stereo partly specified) ?
39

----------
- Tested on: Human immunodeficiency virus 1
- EXPERIMENT DESCRIPTION: Antiviral activity against CCR5 tropic HIV1 BaL infected in human TZM-bl cells assessed as inhibition of virus-induced cytopathic effect preincubated with cells for 30 mins followed by viral infection measured after 48 hrs in presence of p-24 HIV-1 Ag by luciferase reporter gene assay
- Assay type: functional, cell-based
- CONDITION NOTES: Human immunodeficiency virus 1, BaL
PROPERTY: pEC50
Give bare numbers, as −log10 of the molar value.

# per-item lookup of pEC50; items listed below
1. CCCCCOC(=O)C[C@H](NP(=O)(CO[C@@H](CF)Cn1cnc2c(=O)[nH]c(N)nc21)Oc1ccccc1)C(=O)OCCCCC (some centres not stated)
2. CCCCCOC(=O)C[C@H](NP(=O)(CO[C@H](CF)Cn1cnc2c(=O)[nH]c(N)nc21)Oc1ccccc1)C(=O)OCCCCC (some centres not stated)
3. C[C@H](Cn1cnc2c(N)ncnc21)OCP(=O)(O)O [TENOFOVIR ANHYDROUS]

1. 7.22
2. 6.66
3. 5.16

# per-item lookup of pEC50; items listed below
1. CCCCCOC(=O)C[C@H](NP(=O)(CO[C@@H](CF)Cn1cnc2c(N)ncnc21)Oc1ccccc1)C(=O)OCCCCC (some centres not stated)
2. Nc1ncnc2c1ncn2C[C@H](CF)OCP(=O)(O)O
3. Nc1ncnc2c1ncn2C[C@@H](CF)OCP(=O)(O)O
4. Nc1nc(O)c2ncn(C[C@H](CF)OCP(=O)(O)O)c2n1
5. CCCCCOC(=O)C[C@H](NP(=O)(CO[C@H](CF)Cn1cnc2c(N)ncnc21)Oc1ccccc1)C(=O)OCCCCC (some centres not stated)
6. Nc1ccn(C[C@@H](CF)OCP(=O)(O)O)c(=O)n1
7. Nc1nc(O)c2ncn(C[C@@H](CF)OCP(=O)(O)O)c2n1

1. 6.96
2. 4.51
3. 5.19
4. 5.18
5. 8.40
6. 4.16
7. 5.42

----------
- Test system: Human immunodeficiency virus 1
- EXPERIMENT DESCRIPTION: Antiviral activity against CXCR4-tropic HIV-1 NL4-3 infected in human PHA-stimulated PBMC assessed as inhibition of viral replication by measuring reduction in p24 antigen production preincubated with cells for 30 mins followed by viral infection measured on day 10 post infection in presence of IL-2 by ELISA
- Assay type: functional
- CONDITION NOTES: Human immunodeficiency virus 1, NL4-3
PROPERTY: IC50 (µM)
Answers are plain numbers, in µM.

Consider the reported IC50 for these molecules:
INSERT INTO measurements (molecule, experimental_system, property, units_text, measured_number) VALUES
  ('CC(C)OC(=O)[C@H](C)N[P@](=O)(CO[C@H](C)Cn1cnc2c(N)ncnc21)Oc1ccccc1 [TENOFOVIR ALAFENAMIDE]', 'Human immunodeficiency virus 1', 'IC50', 'µM', 0.001),
  ('CCCCCOC(=O)C[C@H](NP(=O)(CO[C@@H](CF)Cn1cnc2c(N)ncnc21)Oc1ccccc1)C(=O)OCCCCC (stereo partly specified)', 'Human immunodeficiency virus 1', 'IC50', 'µM', 0.026),
  ('CCCCCOC(=O)C[C@H](NP(=O)(CO[C@@H](CF)Cn1cnc2c(=O)[nH]c(N)nc21)Oc1ccccc1)C(=O)OCCCCC (stereo partly specified)', 'Human immunodeficiency virus 1', 'IC50', 'µM', 0.02),
  ('CC(C)OC(=O)OCOP(=O)(CO[C@H](C)Cn1cnc2c(N)ncnc21)OCOC(=O)OC(C)C.O=C(O)/C=C/C(=O)O [TENOFOVIR DISOPROXIL FUMARATE]', 'Human immunodeficiency virus 1', 'IC50', 'µM', 0.08),
  ('CCCCCOC(=O)C[C@H](NP(=O)(CO[C@H](CF)Cn1cnc2c(N)ncnc21)Oc1ccccc1)C(=O)OCCCCC (stereo partly specified)', 'Human immunodeficiency virus 1', 'IC50', 'µM', 0.003);

# per-item lookup of IC50; items listed below
1. Nc1ncnc2c1ncn2C[C@@H](CF)OCP(=O)(O)O
2. C[C@H](Cn1cnc2c(N)ncnc21)OCP(=O)(O)O [TENOFOVIR ANHYDROUS]
3. Nc1ncnc2c1ncn2C[C@H](CF)OCP(=O)(O)O
4. Nc1nc(O)c2ncn(C[C@H](CF)OCP(=O)(O)O)c2n1
5. Nc1nc(O)c2ncn(C[C@@H](CF)OCP(=O)(O)O)c2n1

[1.19, 0.38, 4.04, 1.42, 0.28]

Notebook entry, Human immunodeficiency virus 1 assay: IC50 of CCCCCOC(=O)C[C@H](NP(=O)(CO[C@H](CF)Cn1cnc2c(=O)[nH]c(N)nc21)Oc1ccccc1)C(=O)OCCCCC (stereo partly specified) = ?
0.03

----------
For each entry below, report its CC50 at 144 h value.
- EXPERIMENT DESCRIPTION: Cytotoxicity against human MT4 cells assessed as reduction in cell viability after 6 days by XTT tetrazolium dye-based assay

INSERT INTO measurements (compound, result) VALUES
  ('CCCCCOC(=O)C[C@H](NP(=O)(CO[C@@H](CF)Cn1cnc2c(=O)[nH]c(N)nc21)Oc1ccccc1)C(=O)OCCCCC (stereo not given in full)', '> 1000 nM'),
  ('Cc1cn([C@H]2C[C@H](N=[N+]=[N-])[C@@H](CO)O2)c(=O)[nH]c1=O', '> 500 nM'),
  ('CC(C)OC(=O)OCOP(=O)(CO[C@H](C)Cn1cnc2c(N)ncnc21)OCOC(=O)OC(C)C.O=C(O)/C=C/C(=O)O [TENOFOVIR DISOPROXIL FUMARATE]', '> 20000 nM'),
  ('C[C@H](Cn1cnc2c(N)ncnc21)OCP(=O)(O)O [TENOFOVIR ANHYDROUS]', '> 20000 nM');

We now examine a further compound.
Which measured CC50 at 144 h value corresponds to CCCCCOC(=O)C[C@H](NP(=O)(CO[C@H](CF)Cn1cnc2c(N)ncnc21)Oc1ccccc1)C(=O)OCCCCC (stereo not given in full) ?
> 1000 nM
